From: the RNAGym collection of RNA variant scans (doi:10.1021/acssynbio.7b00057)

B1: Pistol ribozyme (parent)
chain: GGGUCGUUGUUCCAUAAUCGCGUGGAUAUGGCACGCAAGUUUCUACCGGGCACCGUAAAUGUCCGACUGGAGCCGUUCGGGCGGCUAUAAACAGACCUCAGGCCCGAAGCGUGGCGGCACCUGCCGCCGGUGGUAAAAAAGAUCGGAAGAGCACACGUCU

Variants of: B1
Experiment: aptazyme ON/OFF ratio, guanine; higher = stronger switching; co-transcriptional cleavage with and without guanine
value kind: aptazyme ON/OFF ratio

mutation_descriptor="U7G G9C U11A C12U C13U" value_kind="aptazyme ON/OFF ratio" measured_number=1.32
mutation_descriptor="U10C U11A C12A" value_kind="aptazyme ON/OFF ratio" measured_number=1.48
mutation_descriptor="U7A U8G G9A U10G U11C C12G C13G" value_kind="aptazyme ON/OFF ratio" measured_number=1.23
mutation_descriptor="G9C U11A" value_kind="aptazyme ON/OFF ratio" measured_number=1.78
mutation_descriptor="U8G G9U U10A U11C C13A" value_kind="aptazyme ON/OFF ratio" measured_number=1.02
mutation_descriptor="U7C G9A U10C U11A C12U C13A" value_kind="aptazyme ON/OFF ratio" measured_number=1.21
mutation_descriptor="U8G G9C U10C U11A C12G" value_kind="aptazyme ON/OFF ratio" measured_number=1.06
mutation_descriptor="U7A U8A G9C U10C U11C C12U C13G" value_kind="aptazyme ON/OFF ratio" measured_number=1.02
mutation_descriptor="U7A U8A G9U U10C U11G C12G C13U" value_kind="aptazyme ON/OFF ratio" measured_number=1.12
mutation_descriptor="U8A U10C C12U C13U" value_kind="aptazyme ON/OFF ratio" measured_number=1.35
mutation_descriptor="U7C U8C G9A U10A U11C C13G" value_kind="aptazyme ON/OFF ratio" measured_number=1.04
mutation_descriptor="U8C G9A U10A U11G C12G C13U" value_kind="aptazyme ON/OFF ratio" measured_number=1.14
mutation_descriptor="U7C U8A G9U U11G C12G C13U" value_kind="aptazyme ON/OFF ratio" measured_number=1.14
mutation_descriptor="G9A U10C U11A" value_kind="aptazyme ON/OFF ratio" measured_number=2.25
mutation_descriptor="U7G G9A U10C C13G" value_kind="aptazyme ON/OFF ratio" measured_number=1.08
mutation_descriptor="U7C U8A U10G U11C C12A C13U" value_kind="aptazyme ON/OFF ratio" measured_number=1.45
mutation_descriptor="U7C U8G G9U U10C" value_kind="aptazyme ON/OFF ratio" measured_number=2.72
mutation_descriptor="U7G U8A G9C U10A C12G C13A" value_kind="aptazyme ON/OFF ratio" measured_number=1.04
mutation_descriptor="U8C G9A U10A C12U" value_kind="aptazyme ON/OFF ratio" measured_number=1.31
mutation_descriptor="U7C U8A U10A U11A C12G" value_kind="aptazyme ON/OFF ratio" measured_number=1.2
mutation_descriptor="U8A G9U U10G C12U C13G" value_kind="aptazyme ON/OFF ratio" measured_number=1.27
mutation_descriptor="U7A U8A G9C U10G U11G C12U" value_kind="aptazyme ON/OFF ratio" measured_number=1.39
